These measurements were taken from patent US20210155689A1.

# TESTED_SYSTEM: T1, human LAG-3 ECD (antigen protein of the affinity test) (human, UniProt P18627 23-450)
# T1 sequence: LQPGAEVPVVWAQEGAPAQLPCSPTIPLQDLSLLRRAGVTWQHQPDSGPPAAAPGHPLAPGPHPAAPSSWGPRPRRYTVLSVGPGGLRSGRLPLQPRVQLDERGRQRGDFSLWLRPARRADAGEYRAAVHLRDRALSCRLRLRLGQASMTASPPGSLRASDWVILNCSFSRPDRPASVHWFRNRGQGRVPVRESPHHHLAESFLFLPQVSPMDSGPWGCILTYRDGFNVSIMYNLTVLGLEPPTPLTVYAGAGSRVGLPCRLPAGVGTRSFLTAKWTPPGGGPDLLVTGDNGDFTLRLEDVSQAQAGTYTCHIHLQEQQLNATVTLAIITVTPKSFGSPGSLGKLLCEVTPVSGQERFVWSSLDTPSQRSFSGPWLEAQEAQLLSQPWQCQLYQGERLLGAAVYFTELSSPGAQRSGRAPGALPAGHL
# ASSAY_PROCEDURE: SPR (CM5 chip), antibody captured by anti-human Fc IgG, antigen protein in flow, 1:1 model
# Method: First, anti-human Fc IgG was immobilized on the surface of the CM5 chip to 6000-10000 RU by amino coupling method, with FC1 as the reference channel. The coupling process was as follows: a freshly prepared 1:1 mixture of 50 mM NHS and 200 mM EDC was activated for 7 minutes, then injected with 10-50 ug/ml anti-human Fc IgG diluted in 10 mM sodium acetate ph5.0 buffer. […] The dissociation equilibrium rate constant (KD) was calculated according to the following formula: KD=kd/ka. […]
QUANTITY_MEASURED: koff (s⁻¹)
Output spec: scalar in s⁻¹, unitless text.

Problem: For the binder shown here, 405B8H3 mouse-human chimeric antibody (antibody, V domains shown, also called mAb103-405B8H3) VH: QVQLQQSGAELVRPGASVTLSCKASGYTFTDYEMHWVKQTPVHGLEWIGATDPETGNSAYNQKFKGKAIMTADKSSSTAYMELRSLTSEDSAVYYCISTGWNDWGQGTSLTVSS VL: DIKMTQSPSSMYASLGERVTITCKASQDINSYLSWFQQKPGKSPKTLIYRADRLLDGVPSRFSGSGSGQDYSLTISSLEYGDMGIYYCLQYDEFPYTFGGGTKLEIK , give the reported koff.
Solution: 0.000164

Problem: Likewise for 556F6B8-3 (D→E) hot-spot mutated humanized antibody (antibody, V domains shown) VH: QVQLQESGPGLVKPSETLSLTCTVSGFSLIKYGVHWIRQPPGKGLEWIGVIWRGGITDYNAAFMSRVTISKDTSKSQVSLKLSSVTAADTAVYYCARWEGPLAMDYWGQGTTVTVSS VL: DIQLTQSPSFLSASVGDRVTITCKASQDVGTTVAWYQQKPGKAPKLLIYWASTRHTGVPSRFSGSGSGTEFTLTISSLQPEDFATYYCQQYSSYPYTFGQGTKLEIK ?
Solution: 0.00384

Problem: Likewise for 556F6B8 mouse-human chimeric antibody (antibody, V domains shown, also called mAb123-556F6B8) VH: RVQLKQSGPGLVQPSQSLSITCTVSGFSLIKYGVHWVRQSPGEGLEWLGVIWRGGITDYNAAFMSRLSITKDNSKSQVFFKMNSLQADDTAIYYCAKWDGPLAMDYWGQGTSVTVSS VL: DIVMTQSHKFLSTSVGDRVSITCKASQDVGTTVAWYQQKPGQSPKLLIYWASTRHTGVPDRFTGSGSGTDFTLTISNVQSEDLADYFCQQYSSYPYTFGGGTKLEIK ?
Solution: 0.000433

Problem: Likewise for 405B8H3-1 (D→E) hot-spot mutated humanized antibody (antibody, V domains shown) VH: QVQLVQSGAEVKKPGASVKVSCKASGYTFTDYEMHWVRQAPGQGLEWMGATDPETGNSAYNQKFKGRVTMTRDTSTSTVYMELSSLRSEDTAVYYCISTGWNDWGQGTTVTVSS VL: DIQMTQSPSSLSASVGDRVTITCKASQDINSYLSWFQQKPGKAPKSLIYRADRLLEGVPSRFSGSGSGTDFTLTISSLQPEDFATYYCLQYDEFPYTFGQGTKLEIK ?
Solution: 0.000158
